Consider the following compounds; for each one, report its viability, T/C.
# Tested on: 377384-186-R-J1-PDC complex spheroid viability
# Test method notes: Anticancer human tumor 377384-186-R-J1-PDC patient-derived pancreatic carcinoma cell line growth inhibition [RAS]
# Experimental conditions: second compound 0.316 µM; first compound 1 µM; hits give low values
One number for each entry, in %.

- Compound: "NC1c2ccccc2OC12CCN(c1cnc3c(N4CCCc5ncccc54)n[nH]c3n1)CC2 (centres undefined) + C#Cc1c(F)ccc2cc(O)cc(-c3ncc4c(N5CC6CCC(C5)N6)nc(OCC56CCCN5CC(F)C6)nc4c3F)c12"
  Measurement: 0.67

Provide each entry's viability, T/C from the list below.
1. CCN1CCN(Cc2ccc(Nc3ncc(F)c(-c4cc(F)c5nc(C)n(C(C)C)c5c4)n3)nc2)CC1 + C#Cc1c(F)ccc2cc(O)cc(-c3ncc4c(N5CC6CCC(C5)N6)nc(OCC56CCCN5CC(F)C6)nc4c3F)c12
2. CC(=O)OC12COC1CC(O)C1(C)C(=O)C(O)C3=C(C)C(OC(=O)C(O)C(NC(=O)OC(C)(C)C)c4ccccc4)CC(O)(C(OC(=O)c4ccccc4)C21)C3(C)C (centres undefined) + C=CC(=O)N1CCN(c2nc(OCC3CCCN3C)nc3c(F)c(-c4nc(N)cc(C)c4C(F)(F)F)c(Cl)cc23)C(C)C1
3. CC1(O)CCCC1n1c(=O)c(C(F)F)cc2cnc(NC3CCN(S(C)(=O)=O)CC3)nc21 (centres undefined) + C#Cc1c(F)ccc2cc(O)cc(-c3ncc4c(N5CC6CCC(C5)N6)nc(OCC56CCCN5CC(F)C6)nc4c3F)c12

1: 2.17; 2: 10.3; 3: 4.22

----------
# Tested on: 377384-186-R-J1-PDC complex spheroid viability
# Test method notes: Anticancer human tumor 377384-186-R-J1-PDC cell line growth inhibition [RAS]; active = viability on the fitted dose curve at most 10% of control; inactive = the rest;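 also: spheroids exposed to compounds for seven days before readout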
# Experimental conditions: second compound 0.03 µM; first compound 0.1 µM
Field 'call' accepts active, inactive

- Compound: "CCC(CC)c1cc(NC2CCC(N)C2)n2nccc2n1 (centres undefined) + CCn1c(-c2cc(N3CCN(C)CC3)cnc2C(C)OC)c2c3cc(ccc31)-c1csc(n1)CC(NC(=O)C1CC1C)C(=O)N1CCCC(N1)C(=O)OCC(C)(C)C2"
  Assigned label: "active"

Lab log entry: CC(Nc1ccc2c(c1)OCCn1cc(N3C(=O)OCC3C(F)F)nc1-2)C(N)=O (centres undefined) + CCn1c(-c2cccnc2C(C)OC)c2c3cc(ccc31)N1CCOC(CC(NC(=O)C(C(C)C)N(C)C(=O)C3(F)CCN(C(=O)C#CC(C)(C)N(C)C)CC3)C(=O)N3CCCC(N3)C(=O)OCC(C)(C)C2)C1 — outcome as called in the assay?
inactive

Lab log entry: CC(C)n1nc(-c2ccc3oc(N)nc3c2)c2c(N)ncnc21 + CCn1c(-c2cc(N3CCN(C)CC3)cnc2C(C)OC)c2c3cc(ccc31)-c1csc(n1)CC(NC(=O)C1CC1C)C(=O)N1CCCC(N1)C(=O)OCC(C)(C)C2 — outcome as called in the assay?
active

Lab log entry: CC(=O)OC12COC1CC(O)C1(C)C(=O)C(O)C3=C(C)C(OC(=O)C(O)C(NC(=O)OC(C)(C)C)c4ccccc4)CC(O)(C(OC(=O)c4ccccc4)C21)C3(C)C (centres undefined) + CCn1c(-c2cc(N3CCN(C)CC3)cnc2C(C)OC)c2c3cc(ccc31)-c1csc(n1)CC(NC(=O)C1CC1C)C(=O)N1CCCC(N1)C(=O)OCC(C)(C)C2 — outcome as called in the assay?
active

----------
Consider the following compounds; for each one, report its viability, T/C.
# Tested on: 377384-186-R-J1-PDC complex spheroid viability
# Test method notes: Anticancer human tumor 377384-186-R-J1-PDC cell line growth inhibition [RAS];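 also: spheroids exposed to compounds for seven days before readout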
# Experimental conditions: second compound 0.00949 µM; first compound 1 µM; hits give low values
Answers are plain numbers, in %.

- Compound: "NC1c2ccccc2OC12CCN(c1cnc3c(N4CCCc5ncccc54)n[nH]c3n1)CC2 (configuration not stated) + CCn1c(-c2cc(N3CCN(C)CC3)cnc2C(C)OC)c2c3cc(ccc31)-c1csc(n1)CC(NC(=O)C1CC1C)C(=O)N1CCCC(N1)C(=O)OCC(C)(C)C2"
  Endpoint unit: "%"
  viability, T/C: 0.41
- Compound: "CC(=O)OC12COC1CC(O)C1(C)C(=O)C(O)C3=C(C)C(OC(=O)C(O)C(NC(=O)OC(C)(C)C)c4ccccc4)CC(O)(C(OC(=O)c4ccccc4)C21)C3(C)C (configuration not stated) + CCn1c(-c2cc(N3CCN(C)CC3)cnc2C(C)OC)c2c3cc(ccc31)-c1csc(n1)CC(NC(=O)C1CC1C)C(=O)N1CCCC(N1)C(=O)OCC(C)(C)C2"
  Endpoint unit: "%"
  viability, T/C: 2.25
- Compound: "CC(=O)OC12COC1CC(O)C1(C)C(=O)C(O)C3=C(C)C(OC(=O)C(O)C(NC(=O)OC(C)(C)C)c4ccccc4)CC(O)(C(OC(=O)c4ccccc4)C21)C3(C)C (configuration not stated) + CCn1c(-c2cccnc2C(C)OC)c2c3cc(ccc31)N1CCOC(CC(NC(=O)C(C(C)C)N(C)C(=O)C3(F)CCN(C(=O)C#CC(C)(C)N(C)C)CC3)C(=O)N3CCCC(N3)C(=O)OCC(C)(C)C2)C1"
  Endpoint unit: "%"
  viability, T/C: 12
- Compound: "Cc1nc(N2CCC3(CC2)COC(C)C3N)c(CO)nc1Sc1ccnc(N)c1Cl (configuration not stated) + CCn1c(-c2cccnc2C(C)OC)c2c3cc(ccc31)N1CCOC(CC(NC(=O)C(C(C)C)N(C)C(=O)C3(F)CCN(C(=O)C#CC(C)(C)N(C)C)CC3)C(=O)N3CCCC(N3)C(=O)OCC(C)(C)C2)C1"
  Endpoint unit: "%"
  viability, T/C: 75
- Compound: "Cc1nc(N2CCC3(CC2)COC(C)C3N)c(CO)nc1Sc1ccnc(N)c1Cl (configuration not stated) + CCn1c(-c2cc(N3CCN(C)CC3)cnc2C(C)OC)c2c3cc(ccc31)-c1csc(n1)CC(NC(=O)C1CC1C)C(=O)N1CCCC(N1)C(=O)OCC(C)(C)C2"
  Endpoint unit: "%"
  viability, T/C: 1.66
- Compound: "CC1(O)CCCC1n1c(=O)c(C(F)F)cc2cnc(NC3CCN(S(C)(=O)=O)CC3)nc21 (configuration not stated) + CCn1c(-c2cccnc2C(C)OC)c2c3cc(ccc31)N1CCOC(CC(NC(=O)C(C(C)C)N(C)C(=O)C3(F)CCN(C(=O)C#CC(C)(C)N(C)C)CC3)C(=O)N3CCCC(N3)C(=O)OCC(C)(C)C2)C1"
  Endpoint unit: "%"
  viability, T/C: 29.7

API: the following record is the query input.
// viability, T/C lookup, key: C[C@@H](NC(=O)c1ncnc(N)c1Cl)c1ncc(C(=O)Nc2cc(C(F)(F)F)c(Cl)cn2)s1 + CCn1c(-c2cccnc2C(C)OC)c2c3cc(ccc31)N1CCOC(CC(NC(=O)C(C(C)C)N(C)C(=O)C3(F)CCN(C(=O)C#CC(C)(C)N(C)C)CC3)C(=O)N3CCCC(N3)C(=O)OCC(C)(C)C2)C1
129

----------
# Tested on: 377384-186-R-J1-PDC complex spheroid viability
# Test method notes: Anticancer human tumor 377384-186-R-J1-PDC cell line growth inhibition [RAS]; active = viability on the fitted dose curve at most 10% of control; inactive = the rest;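 also: spheroids exposed to compounds for seven days before readout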
# Experimental conditions: second compound 1 µM; first compound 3.16 µM
# Text: RAS pathway inhibitors in Combinations in Complex Spheroids A high-throughput screen of multi-cell type tumor spheroids was designed to identify active combinations of RAS pathway inhibitors and targeted small molecules. Complex spheroids include a stromal component modeled by human endothelial cells (HUVEC) and fibroblasts modeled by human mesenchymal stem cells (MSCs). […] Compounds. […] If the clinical Cmax for an agent had not been determined, the highest concentration tested was 10 microM. […]
Field 'call' accepts True for active, False for inactive

- Molecule: "CC1(O)CCCC1n1c(=O)c(C(F)F)cc2cnc(NC3CCN(S(C)(=O)=O)CC3)nc21 (stereo unspecified) + C=CC(=O)N1CCN(c2nc(OCC3CCCN3C)nc3c(F)c(-c4nc(N)cc(C)c4C(F)(F)F)c(Cl)cc23)C(C)C1"
  Assigned label: "False"
- Molecule: "CC1(O)CCCC1n1c(=O)c(C(F)F)cc2cnc(NC3CCN(S(C)(=O)=O)CC3)nc21 (stereo unspecified) + C#Cc1c(F)ccc2cc(O)cc(-c3ncc4c(N5CC6CCC(C5)N6)nc(OCC56CCCN5CC(F)C6)nc4c3F)c12"
  Assigned label: "True"
- Molecule: "CC(=O)OC12COC1CC(O)C1(C)C(=O)C(O)C3=C(C)C(OC(=O)C(O)C(NC(=O)OC(C)(C)C)c4ccccc4)CC(O)(C(OC(=O)c4ccccc4)C21)C3(C)C (stereo unspecified) + C#Cc1c(F)ccc2cc(O)cc(-c3ncc4c(N5CC6CCC(C5)N6)nc(OCC56CCCN5CC(F)C6)nc4c3F)c12"
  Assigned label: "True"
- Molecule: "NC1c2ccccc2OC12CCN(c1cnc3c(N4CCCc5ncccc54)n[nH]c3n1)CC2 (stereo unspecified) + C=CC(=O)N1CCN(c2nc(OCC3CCCN3C)nc3c(F)c(-c4nc(N)cc(C)c4C(F)(F)F)c(Cl)cc23)C(C)C1"
  Assigned label: "False"
- Molecule: "CC(C)NCC(C(=O)N1CCN(c2ncnc3c2C(C)CC3O)CC1)c1ccc(Cl)cc1 (stereo unspecified) + C=CC(=O)N1CCN(c2nc(OCC3CCCN3C)nc3c(F)c(-c4nc(N)cc(C)c4C(F)(F)F)c(Cl)cc23)C(C)C1"
  Assigned label: "False"

Lab log entry: Cc1nc(N2CCC3(CC2)COC(C)C3N)c(CO)nc1Sc1ccnc(N)c1Cl (stereo unspecified) + C#Cc1c(F)ccc2cc(O)cc(-c3ncc4c(N5CC6CCC(C5)N6)nc(OCC56CCCN5CC(F)C6)nc4c3F)c12 — outcome as called in the assay?
True
